Reported melting point is given for each of the following compounds.

Ask: Using the record for CCOc1cc(C(=O)NC2CC(C)(C)NC(C)(C)C2)ccc1-c1nc2cc(Cl)c(Cl)cc2[nH]1 , state its measured melting point.
Reply: > 280 °C

Ask: Using the record for COc1cc(C(=O)NCCCN2CCN(c3ncccn3)CC2)ccc1-c1nc2cc(Cl)c(Cl)cc2[nH]1 , state its measured melting point.
Reply: 255 to 258 °C

Ask: Using the record for COc1cc(C(=O)NC2CC(C)(C)N(C)C(C)(C)C2)ccc1-c1nc2cc(Cl)c(Cl)cc2n1C , state its measured melting point.
Reply: 178 to 180 °C

Now for another entry.
Ask: Using the record for COc1cc(C(=O)NC2CC(C)(C)N(C)C(C)(C)C2)ccc1-c1nc2cc(Cl)c(Cl)cc2[nH]1 , state its measured melting point.
Reply: 285 to 286 °C
